measuredTarget: NAD(+) hydrolase SARM1 (Homo sapiens)
experimentalDetails: SARM1 TIR NADase inhibitors, cell lysate, NAD-Glo luminescence (AID 1508614);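 further: higher remaining NAD means stronger inhibition of SARM1 NADase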
statedConditions: SAM-TIR HEK293T lysate NADase, at 1 µM, hits give high values
Activity calls are given as the source filed them.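 How the source made its calls: active means compound whose remaining NAD level is above about 45 nM (limit read from the data); inactive means the rest.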
observable: remaining NAD

Input: What value of measured remaining NAD is listed for C=C1CC[C@H](O)C/C1=C/C=C1\CCC[C@]2(C)[C@@H]([C@H](C)/C=C/[C@H](C)C(C)C)CC[C@@H]12 ?
Output: 10 nM (inactive)

Input: # lookup: remaining NAD of C#C[C@]1(OC(C)=O)CC[C@H]2[C@@H]3CCC4=CC(=O)CC[C@@H]4[C@H]3CC[C@@]21C
Output: 24 nM (inactive)

Input: Data request, read-out remaining NAD, for CCN(CC)C(=O)/C(C#N)=C/c1cc(O)c(O)c([N+](=O)[O-])c1
Output: 10 nM (inactive)

Input: Look up remaining NAD: CC(C)CCCC(C)N (stereo not given)
Output: 10 nM (inactive)

Input: For the compound CC(=O)NCCCS(=O)(=O)O , what remaining NAD is on record?
Output: 10 nM (inactive)

----------
experimentalDetails: growth inhibition of DIPG glioma cells, dose response, cell-based, SU-DIPG-XIII, MIPE5.0, CellTiter-Glo, qHTS (AID 1347064);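 on AC50: cells exposed to compound for 48 hours before the viability read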
statedConditions: SU-DIPG-XIII viability, CellTiter-Glo ATP luminescence
Results filed as inconclusive are left out. The source made the active and inactive calls. No cut-off is given here; in the data, nearly all actives have AC50 up to about 23 µM.
Return exactly one item of Y = active, N = inactive

Would you please look over these solved cases?
1) O=c1[nH]c(=O)n([C@H]2C[C@H](O)[C@@H](CO)O2)cc1C(F)(F)F: N
2) CS(=O)(=O)CCNCc1ccc(-c2ccc3ncnc(Nc4ccc(OCc5cccc(F)c5)c(Cl)c4)c3c2)o1: Y
3) COc1cc(NCc2ccc3nc(N)nc(N)c3c2C)cc(OC)c1OC: Y
4) CN(C)C(=O)C(CCN1CCC(O)(c2ccc(Cl)cc2)CC1)(c1ccccc1)c1ccccc1: N
5) CC1=C(/C=C/C(C)=C/C=C/C(C)=C/C(=O)Nc2ccc(O)cc2)C(C)(C)CCC1: Y
6) O=c1c(O)c(-c2ccc(O)cc2O)oc2cc(O)cc(O)c12: N
7) CC1(C)CCC(C)(C)c2cc(NC(=O)c3ccc(C(=O)O)cc3)ccc21: N
8) CN(C)c1nc(N(C)C)nc(N(C)C)n1: N

Input: Recorded call for CCC1=C[C@@H]2CN(C1)Cc1c([nH]c3ccccc13)[C@@](C(=O)OC)(c1cc3c(cc1OC)N(C)[C@H]1[C@@](O)(C(=O)OC)[C@H](OC(C)=O)[C@]4(CC)C=CCN5CC[C@]31[C@@H]54)C2 ?
Output: Y

Input: Assay outcome for CSCC[C@H](NC(=O)[C@H](Cc1c[nH]c2ccccc12)NC(=O)CCNC(=O)OC(C)(C)C)C(=O)N[C@@H](CC(=O)O)C(=O)N[C@@H](Cc1ccccc1)C(N)=O : what was it?
Output: N

Input: Please let me know the test result on file for Nc1ccn([C@@H]2O[C@H](CO)[C@@H](O)C2O)c(=O)n1 (stereo not given in full) .
Output: N

Input: Would you mind telling me which call this test gave COc1cc2c(c(OC)c1OC)-c1ccc(OC)c(=O)cc1[C@@H](NC(C)=O)CC2 ?
Output: Y

Input: Lab log entry: O=C(O)c1cc(=O)[nH]c(=O)[nH]1 — outcome as called in the assay?
Output: N
